- Tested on: DU-145
- PROTOCOL TEXT: NCI tumour cell line growth inhibition, 48 h
Activity calls are given as the source filed them. No stated cut-off is given here; in the data, active = GI50 up to about 1.1 µM and inactive = higher.
PROPERTY: GI50

Some entries whose results are on file:
O=C(NC(=O)c1c(Cl)nc2sccn12)Nc1ccc(Cl)cc1; > 83.4 µM (inactive)
O=C(CC(=O)c1ccncc1)c1ccccc1; > 100 µM (inactive)
COc1ccccc1-c1cc(O)c2cccnc2n1; > 100 µM (inactive)

INPUT: API: value(readout=GI50, system=DU-145) for record `O=C(c1ccc(Cl)cc1Cl)N(C(=O)N1CCCCC1)c1ccccc1`
OUTPUT: > 100 µM (inactive)

INPUT: Can you check CCOC(=O)CCC(C(=O)OCC)n1nc2ccc(Nc3c(C)[n+]([O-])c4cc(Cl)ccc4[n+]3[O-])cc2n1 (configuration not stated) next?
OUTPUT: > 100 µM (inactive)

INPUT: Can you check `Nc1ccc(Cc2ccc(/N=C\c3ccc(OCc4cccc(COc5ccc(/C=N\c6ccc(Cc7ccc(N)cc7)cc6)cc5)n4)cc3)cc2)cc1` next?
OUTPUT: > 100 µM (inactive)
